Exercise: state measured IC50 for each of the compounds provided.
Biological target: CYP2D6 (Homo sapiens, UniProt P10635)
Sequence (P10635 whole entry): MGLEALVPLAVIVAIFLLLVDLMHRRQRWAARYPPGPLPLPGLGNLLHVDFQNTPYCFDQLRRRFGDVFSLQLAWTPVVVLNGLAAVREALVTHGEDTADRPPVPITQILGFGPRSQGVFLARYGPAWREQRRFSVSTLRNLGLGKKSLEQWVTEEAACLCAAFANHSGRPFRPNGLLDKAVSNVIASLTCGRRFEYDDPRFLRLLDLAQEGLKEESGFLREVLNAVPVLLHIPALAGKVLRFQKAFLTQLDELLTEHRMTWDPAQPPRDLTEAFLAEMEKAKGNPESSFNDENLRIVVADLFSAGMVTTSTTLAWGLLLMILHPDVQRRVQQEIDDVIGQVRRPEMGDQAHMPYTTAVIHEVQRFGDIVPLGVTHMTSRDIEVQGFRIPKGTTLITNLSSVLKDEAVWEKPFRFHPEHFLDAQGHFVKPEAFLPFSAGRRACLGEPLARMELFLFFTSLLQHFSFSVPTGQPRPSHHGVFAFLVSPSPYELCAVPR
Assay: CYP2D6 inhibition assay (bufuralol, pooled human liver microsomes)
Conditions: 2D6 IC50 (uM), CYP2D6 inhibition
Answers are plain numbers, in µM.

Example entries begin here.
smiles-representation | experimental-target | value-unit | IC50
CO[C@H](C)C(=O)N[C@@H](Cc1ccc(F)c(-c2nccs2)c1)[C@H](O)CN[C@H]1CC2(CCC2)Oc2ncc(CC(C)(C)C)cc21 | CYP2D6 (Homo sapiens, UniProt P10635) | µM | 0.5
CO[C@H](C)C(=O)N[C@@H](Cc1ccc(-c2nccs2)cc1)[C@H](O)CN[C@H]1CC2(CCC2)Oc2ncc(CC(C)(C)C)cc21 | CYP2D6 (Homo sapiens, UniProt P10635) | µM | 1
CC(=O)N[C@@H](Cc1cc(F)cc(F)c1)[C@H](O)CN[C@H]1CC2(CCC2)Oc2c(-c3ccncc3)cc(CC(C)C)cc21 | CYP2D6 (Homo sapiens, UniProt P10635) | µM | 0.8
COCC(=O)N[C@@H](Cc1ccc(F)cc1)[C@H](O)CN[C@H]1CC(C)(C)Oc2c1cc(Br)c1c2OCO1 | CYP2D6 (Homo sapiens, UniProt P10635) | µM | 3.1

Hi! Can you tell me IC50 for each of these compounds?
1. CC(=O)N[C@@H](Cc1ccc(F)c(-c2ncc[nH]2)c1)[C@H](O)CN[C@H]1CC2(CCC2)Oc2ncc(CC(C)(C)C)cc21
2. CO[C@H](C)C(=O)N[C@@H](Cc1cc(F)cc(F)c1)[C@H](O)CN[C@H]1CC2(CCC2)Oc2cnc(CC(C)C)cc21
3. CCC(=O)N[C@@H](Cc1ccc2c(c1)OCO2)[C@H](O)CN[C@H]1CC2(CCC2)Oc2ncc(CC(C)C)cc21

Marked response:
1.3
3
1.4

Hi! Can you tell me IC50 for each of these compounds?
1. CO[C@H](C)C(=O)N[C@@H](Cc1cc(F)cc(-c2nccs2)c1)[C@H](O)CN[C@H]1CC2(CCC2)Oc2ncc(CC(C)(C)F)cc21
2. COC(OC)C(=O)N[C@@H](Cc1ccc2c(c1)OCO2)[C@H](O)CN[C@H]1CC2(CCC2)Oc2ncc(CC(C)C)cc21
3. CC(=O)N[C@@H](Cc1cccc(-c2ncc[nH]2)c1)[C@H](O)CN[C@H]1CC2(CCC2)Oc2ncc(CC(C)(C)C)cc21
4. CO[C@H](C)C(=O)N[C@@H](Cc1cc(F)cc(Cl)c1)[C@H](O)CN[C@H]1CC2(CCC2)Oc2cnc(CC(C)(C)F)cc21
5. COCC(=O)N[C@@H](Cc1ccc(F)c(F)c1)[C@H](O)CN[C@H]1CC(C)(C)Oc2ncc(CC(C)(C)C)cc21

Marked response:
[0.95, 3.5, 0.5, 2.4, 2.9]

---

Biological target: Beta Secretase enzyme (BACE) (Homo sapiens, UniProt P56817)
Sequence (P56817 46-501): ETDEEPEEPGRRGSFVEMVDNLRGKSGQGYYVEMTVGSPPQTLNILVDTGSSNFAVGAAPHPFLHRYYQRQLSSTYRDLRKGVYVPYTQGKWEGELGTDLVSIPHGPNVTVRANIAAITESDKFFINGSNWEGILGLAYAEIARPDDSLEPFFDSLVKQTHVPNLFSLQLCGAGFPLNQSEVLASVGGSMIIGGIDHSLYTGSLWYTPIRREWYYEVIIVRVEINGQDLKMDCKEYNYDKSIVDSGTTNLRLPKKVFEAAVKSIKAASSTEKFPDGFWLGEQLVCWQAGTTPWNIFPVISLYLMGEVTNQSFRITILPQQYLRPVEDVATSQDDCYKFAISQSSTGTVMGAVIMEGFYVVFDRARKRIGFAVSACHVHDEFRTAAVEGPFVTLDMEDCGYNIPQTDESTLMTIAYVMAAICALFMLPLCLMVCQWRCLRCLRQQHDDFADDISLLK
Assay: In vitro enzymatic BACE FRET (fluorescence resonance energy transfer) assay
Type: biochemical
Conditions: BACE enzyme assay, IC50's in uM; read-out: BACE1 FRET assay
# Criterion met = IC50 below 0.006 µM (exclusive); Criterion not met = IC50 at/above 0.006 µM

Look over these answered cases.
smiles-representation | class
COCC(=O)N[C@@H](Cc1cccc(-c2ncco2)c1)[C@H](O)CN[C@H]1CC2(CCC2)Oc2ncc(CC(C)C)cc21 | Criterion not met
C#Cc1cnc2c(c1)[C@@H](NC[C@@H](O)[C@H](Cc1cc(F)cc(-c3nccs3)c1)NC(=O)[C@@H](C)OC)CC1(CCC1)O2 | Criterion not met
COCC(=O)N[C@@H](Cc1cccc(-c2nccs2)c1)[C@H](O)CN[C@H]1CC2(CCC2)Oc2ncc(C3CCCC3)cc21 | Criterion not met
C#Cc1cc(C[C@H](NC(=O)CC)[C@H](O)CN[C@H]2CC3(CCC3)Oc3ncc(CC(C)(C)C)cc32)ccc1F | Criterion met

Exam item: Does `CCO[C@@H](C)C(=O)N[C@@H](Cc1ccc2c(c1)OCO2)[C@H](O)CN[C@H]1CC2(CCC2)Oc2ncc(CC(C)C)cc21` have IC50 strictly under 0.006 µM?
Marked response: Criterion not met

---

Molecular target: Beta Secretase enzyme (BACE) (Homo sapiens, UniProt P56817)
Test: In vitro enzymatic BACE FRET (fluorescence resonance energy transfer) assay;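 also: fluorescence read after 1 h with 50 nM quenched peptide substrate spanning the BACE cleavage site, in pH 4.2 acetate buffer containing 10% DMSO and nonionic detergent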
Format: biochemical
Settings: BACE enzyme assay IC50; read-out: BACE1 FRET assay
measured-parameter: IC50 (µM)
Answers are plain numbers, in µM.

Example entries begin here.
smiles-representation | value-unit | IC50
Cc1ccc(CN2CCO[C@H](C(=O)N[C@@H](Cc3ccc(F)cc3)[C@H](O)CN[C@H]3CC4(CCC4)Oc4ncc(CC(C)(C)C)cc43)C2)cc1 | µM | 0.154
COCC(=O)N[C@@H](Cc1cc(F)cc(-c2nc(C)cs2)c1)[C@H](O)CN[C@H]1CC2(CCC2)Oc2ncc(CC(C)C)cc21 | µM | 0.008

Here is the next item to consider.
Exam item: Would you kindly share the measured IC50 for `Cc1csc(CN2CCO[C@H](C(=O)N[C@@H](Cc3ccc(F)cc3)[C@H](O)CN[C@H]3CC4(CCC4)Oc4ncc(CC(C)(C)C)cc43)C2)n1` ?
Marked response: 0.012

---

Exercise: state measured IC50 for each of the compounds provided.
Biological target: CYP2D6 (Homo sapiens)
Test: CYP2D6 inhibition assay (bufuralol, pooled human liver microsomes)
Conditions: 2D6 IC50 (uM), CYP2D6 inhibition
Numbers only, in µM.

Example entries begin here.
smiles-representation | experimental-target | IC50, µM
COCC(=O)N[C@@H](Cc1cccc(-n2ccnc2)c1)[C@H](O)CN[C@H]1CC2(CCC2)Oc2ncc(CC(C)(C)C)cc21 | CYP2D6 (Homo sapiens) | 0.1
CC(=O)N[C@@H](Cc1ccc(F)c(-n2ccnc2)c1)[C@H](O)CN[C@H]1CC2(CCC2)Oc2ncc(CC(C)(C)C)cc21 | CYP2D6 (Homo sapiens) | 0.1
COCC(=O)N[C@@H](Cc1ccc(F)c(-c2nccs2)c1)[C@H](O)CN[C@H]1CC2(CCC2)Oc2ncc(CC(C)(C)F)cc21 | CYP2D6 (Homo sapiens) | 0.6

Hi! Can you tell me IC50 for each of these compounds?
1. Cc1cccc(CN2CCO[C@@H](C(=O)N[C@@H](Cc3ccc(F)cc3)[C@H](O)CN[C@H]3CC4(CCC4)Oc4ncc(CC(C)(C)C)cc43)C2)c1
2. CC(=O)N[C@@H](Cc1cc(F)cc(F)c1)[C@H](O)CN[C@H]1CC2(CCC2)Oc2c1cc(C1CC1)cc2-n1ccnc1
3. COCC(=O)N[C@@H](Cc1cccc(F)c1)[C@H](O)CN[C@H]1CC2(CCC2)Oc2c(-c3ccnc(N(C)C)c3)cc(CC(C)(C)C)cc21
4. CC(=O)N[C@@H](Cc1ccc(-c2nccs2)cc1)[C@H](O)CN[C@H]1CC2(CCC2)Oc2ncc(CC(C)(C)C)cc21
5. CO[C@H](C)C(=O)N[C@@H](Cc1cc(F)cc(-c2nccs2)c1)[C@H](O)CN[C@H]1CC2(CCC2)Oc2ncc(CC(C)(C)C)cc21

Marked response:
[3.1, 0.6, 4.1, 1, 0.6]

Hi! Can you tell me IC50 for each of these compounds?
1. COCC(=O)N[C@@H](Cc1cc(F)cc(F)c1)[C@H](O)CN[C@H]1CC2(CCC2)Oc2c1cc(CC(C)C)nc2-c1cncn1C
2. CC(C)(C)Cc1cnc2c(c1)[C@@H](NC[C@@H](O)[C@H](Cc1ccc(F)cc1)NC(=O)[C@H]1CN(Cc3ccccc3)CCO1)CC1(CCC1)O2
3. CC(=O)N[C@@H](Cc1ccc2c(c1)OCO2)[C@H](O)CN[C@H]1CC(C)(C)Oc2ncc(CC(C)(C)C)cc21
4. COCC(=O)N[C@@H](Cc1cc(F)cc(-c2nc(C)cs2)c1)[C@H](O)CN[C@H]1CC2(CCC2)Oc2ncc(CC(C)C)cc21

Marked response:
[1.8, 3.6, 5.7, 4.5]

---

Test: Microsomal stability assay, human liver microsomes;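 also: pooled human liver microsomes at 0.25 mg/mL with 1 µM compound and NADPH at 37 °C, pH 7.4, for 30 min, unchanged parent quantified by LC-MS/MS against the 0 min sample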
Details: human liver microsomal data
Exercise: state measured log10(HLM) for each of the molecules provided.
Scale: decimal log of HLM, HLM in µL/min/mg.

Example entries begin here.
smiles-representation | measurement
COCC(=O)N[C@@H](Cc1ccc2c(c1)OCO2)[C@H](O)CN[C@H]1CC2(CCC2)Oc2nc(F)c(CC(C)(C)C)cc21 | 1.63
COCC(=O)N[C@@H](Cc1ccc(F)cc1)[C@H](O)CN[C@H]1CC2(CCC2)Oc2c1cc(CC(C)C)cc2-n1ccnc1 | 1.38
CC(=O)N[C@@H](Cc1cc(F)cc(F)c1)[C@H](O)CN[C@H]1CC2(CCC2)Oc2c1cc(CC(C)(C)C)nc2-c1cscn1 | 2.58

Hi! Can you tell me log10(HLM) for each of these molecules?
1. C#Cc1cccc(C[C@H](NC(=O)[C@@H](C)OC)[C@H](O)CN[C@H]2CC3(CCC3)Oc3ncc(CC(C)(C)C)cc32)c1
2. COCC(=O)N[C@@H](Cc1cc(F)cc(F)c1)[C@H](O)CN[C@H]1CC2(CCC2)Oc2c1cc(CC(C)(C)C)nc2Nc1cccnc1
3. C#Cc1cccc(C[C@H](NC(=O)[C@H]2CCCO2)[C@H](O)CN[C@H]2CC3(CCC3)Oc3ncc(CC(C)(C)C)cc32)c1

Marked response:
1. 1.26
2. 2.33
3. 1.65

Provenance of the data: patent US8163909B2
